- assayed-system: MAF (Homo sapiens, UniProt O75444)
- assay-details: Direct-binding FRET assay
- Parameters: made in house
- condition: 4°C; C-terminal rhodamine design; mean or single; read-out: Kd
pKd: −log10 of the molar value. Where no end group is shown, it is not given here.
result-type: pKd

Prompt line: Entry under review: NQIKTLRTRLSKLRKDNLQLEKDIANLERKAKDLRAEKEQLEYEL [ATF4-d1] . Reported pKd?
Response line: < 5.30

Prompt line: I would be grateful if you could share the reported pKd for KRIAYLRQRIAELRNENHVLESRIQRMEKEKDALQQDRDHLEYEL [ATF5-d1] .
Response line: 6.10

Prompt line: Data request, read-out pKd, for EREAQLENRVAHLKEKNQELKAQNLHLKEALSEAQNRNQELKNDA [XBP1-d1]
Response line: < 6.00

----------
- assayed-system: FOS (Homo sapiens)
- assay-details: Direct-binding FRET assay
- Parameters: made in house
- condition: 23°C; C-terminal rhodamine design; repeat 1; read-out: Kd
Where no end group is shown, it is not given here.
result-type: Kd

Prompt line: Suppose we examine the sequence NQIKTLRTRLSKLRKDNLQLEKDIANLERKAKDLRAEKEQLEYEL [ATF4-d1] ; what Kd value has been reported?
Response line: > 5 µM

----------
- assayed-system: HLF (Homo sapiens)
- Construct: made in house
- Sequence (Q16534 225-288 limits assumed): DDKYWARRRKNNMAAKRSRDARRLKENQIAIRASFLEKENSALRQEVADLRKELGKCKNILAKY
- assay-details: Direct-binding FRET assay
- condition: 4°C; C-terminal rhodamine design; mean or single
- Method: The direct binding assay was performed manually in 384-well plates and is similar to a previously described assay. Wells were filled with 20 μL of 1 mM TCEP-HCl. […] Briefly, the Kd of the designed peptide homodimer was experimentally determined and used with previously determined target homodimer Kd values to determine the heterodimer Kd. […] A minimum 15% change in the donor fluorescence upon titrating the acceptor peptide from 0 to 1000 nM was required for a fit to be attempted. […]
Where no end group is shown, it is not given here.
result-type: Kd

Prompt line: Could you share which Kd value was measured for SIAATLEKEEANLEKMNKKLAAEIESLLKEKDKLESVLNYHE [JUN-d1] ?
Response line: > 1000 nM

----------
- assayed-system: BATF2 (Homo sapiens, UniProt Q8N1L9)
- Construct: made in house
- Sequence (Q8N1L9 17-80 limits assumed): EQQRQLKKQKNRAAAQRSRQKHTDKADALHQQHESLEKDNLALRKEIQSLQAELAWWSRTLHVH
- assay-details: Direct-binding FRET assay
- condition: Kd, 4°C; C-terminal rhodamine design; mean or single
Where no end group is shown, it is not given here.
result-type: Kd

Prompt line: For the sequence shown here, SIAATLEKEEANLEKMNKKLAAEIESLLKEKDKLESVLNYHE [JUN-d1] , give the reported Kd.
Response line: > 5 µM

----------
- assayed-system: FOSL1 (Homo sapiens, UniProt P15407)
- Construct: made in house
- assay-details: Direct-binding FRET assay
- condition: 4°C; C-terminal rhodamine design; mean or single
Where no end group is shown, it is not given here.
result-type: Kd

Prompt line: Using the record for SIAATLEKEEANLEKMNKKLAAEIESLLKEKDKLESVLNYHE [JUN-d1] , report its Kd.
Response line: > 1000 nM

----------
Please provide measured pKd for the entries that follow.
- assayed-system: FOSL1 (Homo sapiens)
- Construct: made in house
- assay-details: Direct-binding FRET assay
- condition: 4°C; C-terminal rhodamine design; mean or single; read-out: Kd
pKd: −log10 of the molar value. Where no end group is shown, it is not given here.

Prompt line: I would be grateful if you could share the reported pKd for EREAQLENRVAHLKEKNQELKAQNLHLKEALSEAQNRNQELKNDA [XBP1-d1] .
Response line: < 6.00

Prompt line: I'd like to know its pKd. The sequence in question is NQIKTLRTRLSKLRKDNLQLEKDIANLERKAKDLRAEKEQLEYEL [ATF4-d1]
Response line: < 6.00

Prompt line: Bench note: what pKd did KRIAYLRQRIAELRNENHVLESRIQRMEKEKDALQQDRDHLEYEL [ATF5-d1] show?
Response line: 7.08
